System: HCT-116 colon cancer xenografts
Assay: Tumor growth inhibition of HCT-116 colon cancer xenografts in tumor-bearing nude mice (tumor volume, TGI %, RTV, T/C %)
Format: in vivo, Balb/c Nude mice
Details: Day 15; G3-G9 groups; single IP dose; Mean±SEM
Measured Attribute: Day 15 (RTV)

Worked examples, 4 compounds total:
Compound	Day 15 (RTV)
O=C(Nc1ccn([C@@H]2O[C@H](CO)[C@@H](O)C2(F)F)c(=O)n1)OCc1ccc([N+](=O)[O-])cc1 [Compound G5]	1.91 ± 0.35
CC(C)(C)OC(=O)Nc1ccn([C@@H]2O[C@H](CO)[C@@H](O)C2(F)F)c(=O)n1 [Compound G3]	13.32 ± 4.00
O=C(Nc1ccn([C@@H]2O[C@H](CO)[C@@H](O)C2(F)F)c(=O)n1)OCc1ccccc1 [Compound G4]	2.80 ± 0.97
CC(C)(C)OC(=O)Nc1ccn([C@@H]2O[C@H](COC(=O)Cn3cnc([N+](=O)[O-])c3)[C@@H](O)C2(F)F)c(=O)n1 [Compound G9]	13.83 ± 2.98

Working through the 2 compounds below one at a time, give Day 15 (RTV) for each.
1. CCCCOC(=O)Nc1nc(=O)n([C@@H]2O[C@H](CO)[C@@H](O)C2(F)F)cc1Br [Compound G6]
2. O=C(Nc1nc(=O)n([C@@H]2O[C@H](CO)[C@@H](O)C2(F)F)cc1Br)OCc1ccccc1 [Compound G7]

Result:
["20.80 ± 0.00", "2.91 ± 0.35"]

###

System: HCT-116 colon cancer xenografts
Test: Tumor growth inhibition of HCT-116 colon cancer xenografts in tumor-bearing nude mice (tumor volume, TGI %, RTV, T/C %)
Assay type: in vivo, Balb/c Nude mice
Conditions: Day 0; G10-G16 groups; single IP 400 mg/kg; Mean±SEM
Marks after values point to notes of the source that are not given here.
Could you please report measured Tumor volume, Day 0 for the items listed next?

Worked examples, 5 molecules total:
Molecule	Tested On	Measured Attribute	Recorded Result
O=C(COc1nc(Cl)c(Cl)cc1Cl)OCC1OC(n2cc(-c3cn(Cc4ccccc4)nn3)c(NC(=O)OCc3ccc([N+](=O)[O-])cc3)nc2=O)C(F)(F)C1O (stereo not drawn)	HCT-116 colon cancer xenografts	Tumor volume, Day 0	61.03 ± 13.76* mm^3
O=C(COc1nc(Cl)c(Cl)cc1Cl)OC[C@H]1O[C@@H](n2cc(Br)c(NC(=O)OCc3ccccc3)nc2=O)C(F)(F)C1O (stereo partly drawn)	HCT-116 colon cancer xenografts	Tumor volume, Day 0	83.23 ± 12.39 mm^3
CCCCOC(=O)Nc1nc(=O)n(C2OC(COC(=O)COc3nc(Cl)c(Cl)cc3Cl)C(O)C2(F)F)cc1I (stereo not drawn)	HCT-116 colon cancer xenografts	Tumor volume, Day 0	71.46 ± 18.69 mm^3
CCCCOC(=O)Nc1nc(=O)n(C2OC(COC(=O)COc3nc(Cl)c(Cl)cc3Cl)C(O)C2(F)F)cc1Br (stereo not drawn)	HCT-116 colon cancer xenografts	Tumor volume, Day 0	52.57 ± 10.93** mm^3
CCCCOC(=O)Nc1nc(=O)n(C2OC(COC(=O)COc3nc(Cl)c(Cl)cc3Cl)C(O)C2(F)F)cc1-c1cn(Cc2ccccc2)nn1 (stereo not drawn)	HCT-116 colon cancer xenografts	Tumor volume, Day 0	80.27 ± 13.25 mm^3

API: the following record is the query input.
The recorded Tumor volume, Day 0 with HCT-116 colon cancer xenografts for CCCCOC(=O)Nc1nc(=O)n([C@@H]2O[C@H](COC(=O)Cn3cnc([N+](=O)[O-])c3)C(O)C2(F)F)cc1I (stereo partly drawn) was 70.49 ± 13.19* mm^3

###

Tested on: HCT-116 colon cancer xenografts
Assay: Tumor growth inhibition of HCT-116 colon cancer xenografts in tumor-bearing nude mice (tumor volume, TGI %, RTV, T/C %)
Format: in vivo, Balb/c Nude mice
Conditions: Day 16; G10-G16 groups; single IP 400 mg/kg; Mean±SEM
Marks after values point to notes of the source that are not given here.
Measured Attribute: Tumor volume, Day 16

Worked examples, 2 compounds total:
Compound	Measured Attribute	Recorded Result
O=C(COc1nc(Cl)c(Cl)cc1Cl)OC[C@H]1O[C@@H](n2cc(Br)c(NC(=O)OCc3ccccc3)nc2=O)C(F)(F)C1O (stereo partly drawn)	Tumor volume, Day 16	1375.20 ± 109.23* mm^3
CCCCOC(=O)Nc1nc(=O)n(C2OC(COC(=O)COc3nc(Cl)c(Cl)cc3Cl)C(O)C2(F)F)cc1Br (stereo not drawn)	Tumor volume, Day 16	1317.52 ± 322.74 mm^3

Working through the 4 compounds below one at a time, give Tumor volume, Day 16 for each.
1. CCCCOC(=O)Nc1nc(=O)n(C2OC(COC(=O)COc3nc(Cl)c(Cl)cc3Cl)C(O)C2(F)F)cc1I (stereo not drawn)
2. CCCCOC(=O)Nc1nc(=O)n([C@@H]2O[C@H](COC(=O)Cn3cnc([N+](=O)[O-])c3)C(O)C2(F)F)cc1I (stereo partly drawn)
3. O=C(COc1nc(Cl)c(Cl)cc1Cl)OCC1OC(n2cc(-c3cn(Cc4ccccc4)nn3)c(NC(=O)OCc3ccc([N+](=O)[O-])cc3)nc2=O)C(F)(F)C1O (stereo not drawn)
4. CCCCOC(=O)Nc1nc(=O)n(C2OC(COC(=O)COc3nc(Cl)c(Cl)cc3Cl)C(O)C2(F)F)cc1-c1cn(Cc2ccccc2)nn1 (stereo not drawn)

Result:
1060.78 ± 231.28* mm^3
1267.85 ± 225.13 mm^3
1024.48 ± 288.64* mm^3
415.31 ± 33.61** mm^3

###

Could you please report measured Weight change rate, Day 30 for the items listed next?
Details: Day 30; G10-G16 groups; single IP 400 mg/kg; Mean±SEM
Numbers only, in %.

Molecule	Measured Attribute	Recorded Result
CCCCOC(=O)Nc1nc(=O)n(C2OC(COC(=O)COc3nc(Cl)c(Cl)cc3Cl)C(O)C2(F)F)cc1I (stereo not drawn) [Compound G11]	Weight change rate, Day 30	3.01
CCCCOC(=O)Nc1nc(=O)n(C2OC(COC(=O)COc3nc(Cl)c(Cl)cc3Cl)C(O)C2(F)F)cc1-c1cn(Cc2ccccc2)nn1 (stereo not drawn) [Compound G15]	Weight change rate, Day 30	9.20
CCCCOC(=O)Nc1nc(=O)n([C@@H]2O[C@H](COC(=O)Cn3cnc([N+](=O)[O-])c3)C(O)C2(F)F)cc1I (stereo partly drawn) [Compound G12]	Weight change rate, Day 30	5.67
O=C(COc1nc(Cl)c(Cl)cc1Cl)OC[C@H]1O[C@@H](n2cc(Br)c(NC(=O)OCc3ccccc3)nc2=O)C(F)(F)C1O (stereo partly drawn) [Compound G10]	Weight change rate, Day 30	−1.95

Working through the 2 molecules below one at a time, give Weight change rate, Day 30 for each.
1. CCCCOC(=O)Nc1nc(=O)n(C2OC(COC(=O)COc3nc(Cl)c(Cl)cc3Cl)C(O)C2(F)F)cc1Br (stereo not drawn) [Compound G16]
2. O=C(COc1nc(Cl)c(Cl)cc1Cl)OCC1OC(n2cc(-c3cn(Cc4ccccc4)nn3)c(NC(=O)OCc3ccc([N+](=O)[O-])cc3)nc2=O)C(F)(F)C1O (stereo not drawn) [Compound G13]

Result:
1: 4.94; 2: 13.32

###

Settings: Day 25; G10-G16 groups; single IP 400 mg/kg; Mean±SEM
Measured Attribute: Weight of mice, Day 25 (g)
One number for each entry, in g.

Worked examples, 3 compounds total:
Compound	Measured Attribute	Recorded Result
O=C(COc1nc(Cl)c(Cl)cc1Cl)OCC1OC(n2cc(-c3cn(Cc4ccccc4)nn3)c(NC(=O)OCc3ccc([N+](=O)[O-])cc3)nc2=O)C(F)(F)C1O (stereo not drawn)	Weight of mice, Day 25	22.24
CCCCOC(=O)Nc1nc(=O)n(C2OC(COC(=O)COc3nc(Cl)c(Cl)cc3Cl)C(O)C2(F)F)cc1I (stereo not drawn)	Weight of mice, Day 25	20.43
CCCCOC(=O)Nc1nc(=O)n(C2OC(COC(=O)COc3nc(Cl)c(Cl)cc3Cl)C(O)C2(F)F)cc1Br (stereo not drawn)	Weight of mice, Day 25	21.83

Working through the 3 compounds below one at a time, give Weight of mice, Day 25 for each.
1. CCCCOC(=O)Nc1nc(=O)n([C@@H]2O[C@H](COC(=O)Cn3cnc([N+](=O)[O-])c3)C(O)C2(F)F)cc1I (stereo partly drawn)
2. CCCCOC(=O)Nc1nc(=O)n(C2OC(COC(=O)COc3nc(Cl)c(Cl)cc3Cl)C(O)C2(F)F)cc1-c1cn(Cc2ccccc2)nn1 (stereo not drawn)
3. O=C(COc1nc(Cl)c(Cl)cc1Cl)OC[C@H]1O[C@@H](n2cc(Br)c(NC(=O)OCc3ccccc3)nc2=O)C(F)(F)C1O (stereo partly drawn)

Result:
1: 21.38; 2: 22.4; 3: 19.55
